target: Paired box protein Pax-6 (Homo sapiens) (UniProt P26367); experiment: ATG_Pax6_CIS: Attagene CIS-FACTORIAL HepG2 Assay for human Paired Box 6 (PAX6) (AID 2282956); conditions: HepG2 CIS-FACTORIAL PAX6 reporter transcription, RNA readout; actives raise or lower the signal
Sequence (P26367 whole entry, looked up): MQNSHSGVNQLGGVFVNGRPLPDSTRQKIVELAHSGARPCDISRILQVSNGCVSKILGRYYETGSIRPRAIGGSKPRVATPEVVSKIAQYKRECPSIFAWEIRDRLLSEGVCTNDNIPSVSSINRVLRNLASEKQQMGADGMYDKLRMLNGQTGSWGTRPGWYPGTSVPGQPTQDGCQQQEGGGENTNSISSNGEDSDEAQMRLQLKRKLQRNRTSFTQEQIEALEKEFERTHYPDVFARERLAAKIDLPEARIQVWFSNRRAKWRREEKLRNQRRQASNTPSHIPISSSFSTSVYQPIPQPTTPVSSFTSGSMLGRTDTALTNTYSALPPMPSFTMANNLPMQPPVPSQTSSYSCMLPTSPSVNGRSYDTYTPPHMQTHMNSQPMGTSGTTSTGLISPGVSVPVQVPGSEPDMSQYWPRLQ
Calls of active or inactive are those of the source. How the source made its calls: active means hit-call score of the fitted dose curve at least 0.9, where 1 is the maximum; inactive means score below 0.9.
measure: outcome

CCCCC1(COC(=O)CCC(=O)O)C(=O)N(c2ccccc2)N(c2ccccc2)C1=O | inactive
CCC(Cl)C(Cl)C(Cl)CC(Cl)C(Cl)C(C)Cl (stereo not drawn) | inactive
O=Cc1ccccc1S(=O)(=O)O | inactive

* * *

test: ATG_NRF2_ARE_CIS: Attagene CIS-FACTORIAL HepG2 Assay for human Nuclear Factor Erythroid 2 Related Factor 2 (NFR2) response to Antioxidant Response Elements (ARE) (AID 2282992); details: HepG2 Attagene ARE/NRF2 reporter, transcription factor activity; actives raise or lower the signal
Active and inactive are the calls of the source. How the source made its calls: active means hit-call score of the fitted dose curve at least 0.9, where 1 is the maximum; inactive means score below 0.9.
Could you please pick one outcome from this set? class 1 for active, class 0 for inactive

CC(CN=Cc1ccccc1O)N=Cc1ccccc1O (stereo not drawn) | class 1

Would you kindly look at the next entry?
# fetch the recorded call for "C[Si]1(C)O[Si](C)(C)O[Si](C)(C)O1" here
class 0

Reference source: PubChem BioAssay (EPA / NIEHS)
